# Test system: human PTH1 receptor (Homo sapiens)
# Sequence (Q03431 27-593): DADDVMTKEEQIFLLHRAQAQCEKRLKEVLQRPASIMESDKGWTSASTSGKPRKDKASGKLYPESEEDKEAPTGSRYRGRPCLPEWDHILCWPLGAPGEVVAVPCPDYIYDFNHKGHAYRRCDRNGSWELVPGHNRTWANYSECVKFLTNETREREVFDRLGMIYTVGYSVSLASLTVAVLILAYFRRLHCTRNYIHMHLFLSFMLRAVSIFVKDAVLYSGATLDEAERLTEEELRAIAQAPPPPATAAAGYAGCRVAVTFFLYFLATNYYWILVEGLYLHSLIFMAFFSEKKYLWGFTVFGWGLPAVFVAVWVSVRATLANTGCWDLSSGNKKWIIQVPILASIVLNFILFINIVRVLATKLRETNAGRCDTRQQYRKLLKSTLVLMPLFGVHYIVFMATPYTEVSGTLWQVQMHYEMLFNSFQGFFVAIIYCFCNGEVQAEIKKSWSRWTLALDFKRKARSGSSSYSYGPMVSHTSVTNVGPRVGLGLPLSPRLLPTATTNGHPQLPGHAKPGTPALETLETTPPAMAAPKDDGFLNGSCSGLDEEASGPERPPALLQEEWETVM
# Method summary: In vitro cAMP signal activity in HKRK-B7 cells (LLC-PK1 cells overexpressing the human PTH1 receptor)
# Assay type: cell-based
# Assay conditions: HKRK-B7 cells; compound at 1×10^−3 M; cAMP produced as percentage of that produced by hPTH(1-34) at 100 nM
Reported cAMP production activity (%) values are given for each entry in this list.

# Compound, Reading unit, cAMP production activity (%)
measured = [
    ("O=C1NC(C2CCCCC2)=NC12CCN(S(=O)(=O)CCc1cccc3cnccc13)CC2 [Compound 320]", "%", 33),
    ("CCCCCCCCCC1=NC2(CCN(S(=O)(=O)/C=C/c3ccc(N4C(=O)COCC4=O)cc3C)CC2)C(=O)N1 [Compound 538]", "%", 133),
    ("Cc1cc(S(=O)(=O)Nc2ccncc2)ccc1/C=C/S(=O)(=O)N1CCC2(CC1)N=C(c1cccc(OC(F)(F)F)c1)NC2=O [Compound 530]", "%", 18),
    ("Cc1ccc(C(=O)N2CCN(C)CC2)cc1CCS(=O)(=O)N1CCC2(CC1)N=C(c1cccc(OC(F)(F)F)c1)NC2=O [Compound 414]", "%", 69),
    ("[2H]C([2H])([2H])C1([2H])CCC(C2=NC3(CCN(S(=O)(=O)CCc4c(C)cc(N(C)C(N)=O)cc4C)CC3)C(=O)N2)CC1 (stereo not drawn) [Compound 1364]", "%", 84),
    ("Cc1cc(S(=O)(=O)NCCCCO)ccc1CCS(=O)(=O)N1CCC2(CC1)N=C(c1cccc(OC(F)(F)F)c1)NC2=O [Compound 287]", "%", 58),
    ("Cc1cc(C(=O)N(C)C)ccc1CCS(=O)(=O)N1CCC2(CC1)N=C(c1cccc(C)c1C)NC2=O [Compound 113]", "%", 111),
    ("CN1CCN(C(=O)Nc2ccc(/C=C/S(=O)(=O)N3CCC4(CC3)N=C(C3CCCCC3)NC4=O)c(C(F)(F)F)c2)CC1 [Compound 485]", "%", 7.7),
    ("O=C(CCc1ccccc1)N1CCCC(C2=NC3(CCN(S(=O)(=O)CCc4cccc5ccccc45)CC3)C(=O)N2)C1 (stereo not drawn) [Compound 429]", "%", 38),
    ("CCCCCCCCCC1=NC2(CCN(S(=O)(=O)CCc3ccc(N4CCOCC4=O)cc3C)CC2)C(=O)N1 [Compound 657]", "%", 124),
    ("Cc1cc(N(CCF)C(N)=O)cc(C)c1CCS(=O)(=O)N1CCC2(CC1)N=C(C1CCC(CCC(F)(F)F)CC1)NC2=O (stereo not drawn) [Compound 818]", "%", 79),
    ("CC[C@H]1CC[C@H](C2=NC3(CCN(S(=O)(=O)CCc4ccc(N5C(=O)NC(=O)C5C)cc4C)CC3)C(=O)N2)CC1 (stereo partly drawn) [Compound 879]", "%", 70),
    ("[2H]C([2H])([2H])C([2H])(Oc1ccc(C2=NC3(CCN(S(=O)(=O)/C=C/c4c(C)cc(C(=O)N5CCC(C)(O)CC5)cc4C)CC3)C(=O)N2)cc1C(F)(F)F)C([2H])([2H])[2H] [Compound 1222]", "%", 77),
    ("Cc1cc(C(=O)N2CCC(O)(CF)CC2)cc(C)c1/C=C/S(=O)(=O)N1CCC2(CC1)N=C(c1ccc(F)c(Cl)c1)NC2=O [Compound 1242]", "%", 106),
    ("Cc1cc(N(C[C@H](O)CO)C(N)=O)cc(C)c1/C=C/S(=O)(=O)N1CCC2(CC1)N=C(C1CCC(C)CC1)NC2=O (stereo partly drawn) [Compound 733]", "%", 104),
    ("Cc1cc(N(CCN(C)C)S(C)(=O)=O)cc(C)c1/C=C/S(=O)(=O)N1CCC2(CC1)N=C(c1cccc(OC(F)(F)F)c1)NC2=O [Compound 609]", "%", 46),
    ("O=C1NC(C2CCCCC2)=NC12CCN(S(=O)(=O)C/C=C/c1cccc3c1ccn3C[C@H](O)CO)CC2 [Compound 253]", "%", 54),
    ("Cc1cc(/C=C/S(=O)(=O)N2CCC3(CC2)N=C(C2CCC(C)CC2)NC3=O)cc(C)c1N1C(=O)CNC1=O (stereo not drawn) [Compound 583]", "%", 85),
    ("CNCc1cc(C)c(/C=C/S(=O)(=O)N2CCC3(CC2)N=C(C2CCC(C)CC2)NC3=O)c(C)c1 (stereo not drawn) [Compound 1289]", "%", 17),
    ("O=C(NCCc1ccccc1)N1CCCC(C2=NC3(CCN(S(=O)(=O)CCc4cccc5ccccc45)CC3)C(=O)N2)C1 (stereo not drawn) [Compound 455]", "%", 31),
    ("CC1CCC(C2=NC3(CCN(S(=O)(=O)CCCc4cccc5[nH]ccc45)CC3)C(=O)N2)CC1 (stereo not drawn) [Compound 311]", "%", 67),
    ("NS(=O)(=O)CCCn1ccc2c(/C=C/S(=O)(=O)N3CCC4(CC3)N=C(C3CCCCC3)NC4=O)cccc21 [Compound 484]", "%", 47),
    ("O=C1NC(C2CCCCC2)=NC12CCN(S(=O)(=O)/C=C/c1cccc3cccnc13)CC2 [Compound 633]", "%", 37),
    ("Cc1cc(N(C)C(N)=O)cc(C)c1CCS(=O)(=O)N1CCC2(CC1)N=C(CCCCCCCCCCCCCC(N)=O)NC2=O [Compound 1176]", "%", 82),
]
